Origin of values: the supplement of paper PMC10307832

- Test system: NCI-H1793
- assay.remarks: relative viability (nuclei count vs DMSO), 5 days (fraction); higher = more cells survive
- assay.setup: first compound 0.08 µM
observed.property: relative viability

Here's what some known entries look like.
>>> measured_value("Oc1nc(-c2ccc(C(F)(F)F)cc2)nc2c1CSCC2 [XAV939] + Nc1ncn([C@H]2C[C@H](O)[C@@H](CO)O2)c(=O)n1 [Decitabine] (partner 2 µM)")
0.506
>>> measured_value("Oc1nc(-c2ccc(C(F)(F)F)cc2)nc2c1CSCC2 [XAV939] + CS(=O)(=O)N1CCN(Cc2cc3nc(-c4cccc5[nH]ncc45)nc(N4CCOCC4)c3s2)CC1 [Pictilisib] (partner 1 µM)")
0.344
>>> measured_value("Oc1nc(-c2ccc(C(F)(F)F)cc2)nc2c1CSCC2 [XAV939] + C[C@]1(O)C[C@@H](c2nc(-c3ccc4ccc(-c5ccccc5)nc4c3)c3c(N)nccn32)C1 [Linsitinib] (partner 1 µM)")
0.964
>>> measured_value("C=C1C(=O)O[C@@H](CCCCCCCC)[C@@H]1C(=O)O [C-75] + N=C(N)NC(=N)NCCc1ccccc1 [Phenformin] (partner 250 µM)")
0.365

// for each compound in input: emit relative viability
1. Oc1nc(-c2ccc(C(F)(F)F)cc2)nc2c1CSCC2 [XAV939] + Cc1cc(Nc2cc(N3CCN(C)CC3)nc(Sc3ccc(NC(=O)C4CC4)cc3)n2)n[nH]1 [Tozasertib] (partner 0.1 µM)
2. C=C1C(=O)O[C@@H](CCCCCCCC)[C@@H]1C(=O)O [C-75] + CC(=O)Nc1cccc(-n2c(=O)n(C3CC3)c(=O)c3c(Nc4ccc(I)cc4F)n(C)c(=O)c(C)c32)c1 [Trametinib] (partner 0.02 µM)
3. C=C1C(=O)O[C@@H](CCCCCCCC)[C@@H]1C(=O)O [C-75] + C[C@]1(O)C[C@@H](c2nc(-c3ccc4ccc(-c5ccccc5)nc4c3)c3c(N)nccn32)C1 [Linsitinib] (partner 1 µM)
4. C=C1C(=O)O[C@@H](CCCCCCCC)[C@@H]1C(=O)O [C-75] + CCNC(=O)c1noc(-c2cc(C(C)C)c(O)cc2O)c1-c1ccc(CN2CCOCC2)cc1 [Luminespib] (partner 0.01 µM)
5. Oc1nc(-c2ccc(C(F)(F)F)cc2)nc2c1CSCC2 [XAV939] + Nc1nc2[nH]cc(CCc3ccc(C(=O)N[C@@H](CCC(=O)O)C(=O)O)cc3)c2c(=O)[nH]1 [Pemetrexed] (partner 0.2 µM)
6. C=C1C(=O)O[C@@H](CCCCCCCC)[C@@H]1C(=O)O [C-75] + CC(=O)c1c(C)c2cnc(Nc3ccc(N4CCNCC4)cn3)nc2n(C2CCCC2)c1=O [Palbociclib] (partner 0.5 µM)

Resp:
1. 0.403
2. 0.356
3. 0.775
4. 0.18
5. 1.08
6. 0.278
